The reported numbers originate from paper PMC10123497.

- assay-target: EGFR^(L858R) (Homo sapiens, UniProt P00533, L858R)
- Sequence (P00533 25-1210 L858R): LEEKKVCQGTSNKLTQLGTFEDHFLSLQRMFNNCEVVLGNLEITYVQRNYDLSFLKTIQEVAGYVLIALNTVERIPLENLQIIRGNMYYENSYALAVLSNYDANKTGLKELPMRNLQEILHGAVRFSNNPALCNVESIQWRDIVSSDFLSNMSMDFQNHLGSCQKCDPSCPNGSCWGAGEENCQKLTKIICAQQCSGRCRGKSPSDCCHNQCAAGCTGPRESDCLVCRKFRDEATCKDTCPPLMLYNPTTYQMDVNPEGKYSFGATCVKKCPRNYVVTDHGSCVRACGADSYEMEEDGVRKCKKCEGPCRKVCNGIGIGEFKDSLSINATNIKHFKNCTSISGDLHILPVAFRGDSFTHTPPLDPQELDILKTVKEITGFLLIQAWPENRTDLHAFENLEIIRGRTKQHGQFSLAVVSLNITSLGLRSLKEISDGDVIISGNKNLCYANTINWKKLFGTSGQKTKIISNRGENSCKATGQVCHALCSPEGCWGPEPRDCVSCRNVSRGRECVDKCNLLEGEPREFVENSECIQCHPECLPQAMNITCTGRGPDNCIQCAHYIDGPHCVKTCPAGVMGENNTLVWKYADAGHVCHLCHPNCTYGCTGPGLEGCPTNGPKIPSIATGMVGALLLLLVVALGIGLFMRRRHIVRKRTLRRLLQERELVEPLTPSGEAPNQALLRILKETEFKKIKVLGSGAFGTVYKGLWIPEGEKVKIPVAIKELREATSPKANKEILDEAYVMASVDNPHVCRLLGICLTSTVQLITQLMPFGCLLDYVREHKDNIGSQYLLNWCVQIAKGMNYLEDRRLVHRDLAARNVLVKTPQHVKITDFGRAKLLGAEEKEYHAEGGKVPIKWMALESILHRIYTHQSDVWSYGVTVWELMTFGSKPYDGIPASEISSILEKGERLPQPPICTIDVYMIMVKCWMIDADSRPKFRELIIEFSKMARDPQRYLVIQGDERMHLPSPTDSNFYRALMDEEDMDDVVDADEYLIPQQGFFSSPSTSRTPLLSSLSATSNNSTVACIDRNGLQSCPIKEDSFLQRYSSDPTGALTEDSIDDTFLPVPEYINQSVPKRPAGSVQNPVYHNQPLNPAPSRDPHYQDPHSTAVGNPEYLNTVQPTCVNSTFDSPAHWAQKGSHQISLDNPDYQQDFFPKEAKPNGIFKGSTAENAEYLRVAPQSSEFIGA
- method: EGFR
- condition: Enzyme inhibitory activity IC50 EGFR^(L858R)
property-label: pIC50
Scale: negative log10 of molar concentration, which is what pIC50 denotes.

Output reported pIC50 of the compound O=C1CCCCC1=C1Sc2nc3ccc(S(=O)(=O)N4CCCC4)cc3nc2S1 on EGFR^(L858R) (Homo sapiens, UniProt P00533, L858R). 6.92

----------
- assay-target: VEGFR2 (Homo sapiens, UniProt P35968)
- Sequence (P35968 20-1356): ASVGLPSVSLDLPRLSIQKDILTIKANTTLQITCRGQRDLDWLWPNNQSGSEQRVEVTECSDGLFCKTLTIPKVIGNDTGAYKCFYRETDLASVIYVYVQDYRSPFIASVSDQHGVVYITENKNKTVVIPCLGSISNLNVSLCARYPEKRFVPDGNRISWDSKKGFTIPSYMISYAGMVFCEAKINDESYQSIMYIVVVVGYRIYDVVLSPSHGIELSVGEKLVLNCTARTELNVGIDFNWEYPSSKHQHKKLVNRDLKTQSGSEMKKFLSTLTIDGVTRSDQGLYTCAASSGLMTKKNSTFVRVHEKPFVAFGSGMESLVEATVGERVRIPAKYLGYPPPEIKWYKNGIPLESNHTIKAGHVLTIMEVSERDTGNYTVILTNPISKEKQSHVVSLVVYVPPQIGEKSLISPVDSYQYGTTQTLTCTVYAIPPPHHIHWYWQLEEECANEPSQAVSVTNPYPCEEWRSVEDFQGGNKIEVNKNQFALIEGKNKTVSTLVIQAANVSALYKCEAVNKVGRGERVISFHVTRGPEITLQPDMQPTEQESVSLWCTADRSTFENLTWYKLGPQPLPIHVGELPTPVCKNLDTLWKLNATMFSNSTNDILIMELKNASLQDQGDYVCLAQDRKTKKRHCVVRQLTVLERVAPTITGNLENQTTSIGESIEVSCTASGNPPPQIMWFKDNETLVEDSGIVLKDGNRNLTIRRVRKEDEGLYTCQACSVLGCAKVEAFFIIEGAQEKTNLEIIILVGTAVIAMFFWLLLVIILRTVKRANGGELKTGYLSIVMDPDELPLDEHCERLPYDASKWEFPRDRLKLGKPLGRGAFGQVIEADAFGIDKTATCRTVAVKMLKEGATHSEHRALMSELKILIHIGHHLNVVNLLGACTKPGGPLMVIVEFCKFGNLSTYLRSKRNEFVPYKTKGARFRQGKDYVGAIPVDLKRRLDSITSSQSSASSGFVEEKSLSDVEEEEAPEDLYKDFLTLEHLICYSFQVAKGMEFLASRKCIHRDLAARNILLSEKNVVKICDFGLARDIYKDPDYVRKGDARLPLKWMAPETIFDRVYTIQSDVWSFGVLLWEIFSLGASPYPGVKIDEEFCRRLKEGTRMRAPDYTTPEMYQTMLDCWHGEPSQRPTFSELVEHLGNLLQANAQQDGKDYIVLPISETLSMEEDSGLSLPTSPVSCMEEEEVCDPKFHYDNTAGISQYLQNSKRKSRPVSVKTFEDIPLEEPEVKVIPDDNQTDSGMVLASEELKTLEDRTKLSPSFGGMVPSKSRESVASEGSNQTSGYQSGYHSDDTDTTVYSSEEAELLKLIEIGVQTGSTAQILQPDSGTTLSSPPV
property-label: IC50 (nM)
All answers are understood in nM, so give the number only.

Output reported IC50 of the compound O=C1CCCCC1=C1Sc2nc3ccc(S(=O)(=O)N4CCCC4)cc3nc2S1 [Compound 12] on VEGFR2 (Homo sapiens, UniProt P35968). 420
